target: Grb2 SH2 (UniProt P62993); test: SH2 binding enrichment of the phosphorylated peptide, bacterial display (enrichment ratio); higher = better substrate or ligand; peptides without Tyr show the background;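 note: peptide library displayed on the E. coli surface as eCPX fusions, selected cells deep-sequenced, score is each peptide's frequency after selection divided by its frequency in the input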
READOUT TYPE: SH2 binding enrichment

Below, 10 sequences whose answers are already recorded.
{"SEQUENCE CHAIN": "DLDATYRPMYS [JUP_Y701_M697L]", "SH2 binding enrichment": 0.798}
{"SEQUENCE CHAIN": "VNTMLYEKFTY [TEK_Y1108_T1106M]", "SH2 binding enrichment": 0.979}
{"SEQUENCE CHAIN": "QDDTVYMGKVI [DCTN1_Y1244_T1249I]", "SH2 binding enrichment": 1.05}
{"SEQUENCE CHAIN": "TGDFGYRTPGY [TNS2_Y668_A670T]", "SH2 binding enrichment": 0.762}
{"SEQUENCE CHAIN": "DPHQQYYIAMD [TBX15_Y159]", "SH2 binding enrichment": 0.957}
{"SEQUENCE CHAIN": "FYDANYDGKEY [MAPRE2_Y162]", "SH2 binding enrichment": 0.823}
{"SEQUENCE CHAIN": "VSTAVYKRFPS [BEST1_Y148]", "SH2 binding enrichment": 0.748}
{"SEQUENCE CHAIN": "VDLSKYITTIA [FAS_Y232]", "SH2 binding enrichment": 0.881}
{"SEQUENCE CHAIN": "GRFCGYKSKHG [EPHA3_Y570]", "SH2 binding enrichment": 1.32}
{"SEQUENCE CHAIN": "KSIEEYLKLVG [RASAL2_Y381]", "SH2 binding enrichment": 0.673}

A = DAVAVCHGKIS [SH2D1A_Y7_Y7C]
B = LRSELYFLIAR [PHIP_Y16]
input: Compare A and B by numeric SH2 binding enrichment and name the larger one. Please indicate the selected item by its label.
output: B
(B: 1.44, A: 0.71)

A = IHETTYKSIMK [ACTA1_Y281_N282K]
B = FRASFYRRGDR [LTK_Y677_YF]
input: Please indicate which entry, A or B , has the lower recorded SH2 binding enrichment value. Please indicate the selected item by its label.
output: B

1 = SFPSTYRYERG [INPPL1_Y661_P659S]
2 = RIGRKCKKVRF [F8_Y442_Y442C]
3 = NFDRVYIFHLR [MYOF_Y1137_YF]
input: List the 3 entries from lowest SH2 binding enrichment to highest SH2 binding enrichment value. Record the ranking as a list of labels in the requested order.
output: 2, 1, 3

1 = ANNEFYFQVCA
2 = LAGRFYALRSM [CKB_Y174_K177R_YF]
input: Please indicate which entry, 1 or 2 , has the lower recorded SH2 binding enrichment value. Please indicate the selected item by its label.
output: 1

a = FSKRIYKGMVA [PCDH15_Y931]
b = KLKEKYEKDIA [HMGB1_Y155]
input: Compare a and b by numeric SH2 binding enrichment and name the larger one. Please indicate the selected item by its label.
output: b

I = HVEAVYIDIAD [PITPNA_Y140]
II = PIFLFYLMDLS [ITGB2_Y131_D128Y_YF]
input: Please indicate which entry, I or II , has the lower recorded SH2 binding enrichment value. Please indicate the selected item by its label.
output: II

P = STKELYEKYMI
Q = WIGRKYKKVRF [F8_Y442_R437W]
input: Compare P and Q by numeric SH2 binding enrichment and name the larger one. Please indicate the selected item by its label.
output: Q
(Q: 1.28, P: 0.798)

I = NHQFDYTFDWT [CSNK1A1_Y294_YF]
II = FMFKVYSDPQP [FGFR1_Y280_C277Y_YF]
input: Compare I and II by numeric SH2 binding enrichment and name the larger one. Please indicate the selected item by its label.
output: I

The values you see were collected from the supplement of paper PMC10065799.
